B1: glmS ribozyme (parent)
chain: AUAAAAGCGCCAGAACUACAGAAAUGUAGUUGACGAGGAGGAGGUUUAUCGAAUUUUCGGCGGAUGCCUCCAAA

variants of: B1; test: KM; higher = weaker cofactor use; RNA array; conditions: with glucosamine-6-phosphate
Measured KM, listed per entry.
Write it as a number; the unit µM goes unstated.

Check out these entries, answers already filled in.
Mutant | Endpoint result
A14G U45A U49G | 2040
G32A A52C | 128
G29C A52G | 1940

Problem: Name the recorded KM for G41A U54C .
Solution: 1810

Problem: What do we get for A52G A53U ?
Solution: 1900

Problem: And A14U G66A ?
Solution: 2120

Problem: Another variant to check: A6U A42G
Solution: 3730

Problem: Try this variant next: A48G U56C
Solution: 3700

Problem: And the next one, A6C U47A ?
Solution: 6300

Problem: Same for U47A U65G U69C
Solution: 2700
